Reported EC50 values follow for various molecules
Assay: NIH3T3 cell viability loss – ATP luminescence, mouse fibroblasts, counter-screen, dose response (AID 2010);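 note: cells exposed to compound for about 90 hours before reading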
Type: functional, cell-based

1. O=[N+]([O-])c1nn(-c2ccc3c(c2)OCCO3)[n+]([O-])c1NC1CCCCCC1 = > 30 µM (not active)
2. COC(=O)c1cnc(N2CCCN(S(=O)(=O)c3ccc(C(F)(F)F)cc3)CC2)nc1C(F)(F)F = > 60 µM (not active)
3. CC1=C(C(N)=O)C(c2cccnc2)n2nc(-c3cccc(C)c3)nc2N1 (configuration not stated) = > 60 µM (not active)

Quick note, EC50 for `COC(=O)C1=CN(Cc2ccc(OC)c(OC)c2)C=C(C(=O)OC)C1c1cccc(O)c1` landed at > 60 µM (not active)

Quick note, EC50 for `O=c1c2ccc([N+](=O)[O-])cc2ncn1CCOc1ccc(Cl)cc1` landed at > 30 µM (not active)

Quick note, EC50 for `O=C(CNc1cccc2ccccc12)N/N=C/c1ccc([N+](=O)[O-])o1` landed at > 60 µM (not active)

Quick note, EC50 for `Cc1cccc(NC(=O)c2sc(-c3ccccc3)nc2-c2ccc([N+](=O)[O-])cc2)c1` landed at > 60 µM (not active)

----------
Biological target: DNA repair protein RAD52 homolog (Homo sapiens)
Sequence (P43351 whole entry): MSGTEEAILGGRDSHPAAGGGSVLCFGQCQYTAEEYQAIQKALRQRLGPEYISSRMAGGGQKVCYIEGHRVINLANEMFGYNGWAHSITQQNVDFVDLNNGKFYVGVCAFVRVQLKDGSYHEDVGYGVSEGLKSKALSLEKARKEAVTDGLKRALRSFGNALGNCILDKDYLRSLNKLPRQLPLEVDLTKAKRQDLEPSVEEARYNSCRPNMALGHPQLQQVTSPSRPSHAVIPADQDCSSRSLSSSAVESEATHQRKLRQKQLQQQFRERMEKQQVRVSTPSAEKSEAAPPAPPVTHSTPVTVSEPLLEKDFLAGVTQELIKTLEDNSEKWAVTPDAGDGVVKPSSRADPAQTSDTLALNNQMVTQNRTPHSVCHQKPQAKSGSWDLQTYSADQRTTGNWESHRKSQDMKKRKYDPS
Assay type: functional, biochemical
Counter-ions that a name gives are not always drawn. Calls of active or inactive are those of the source.
measurement.kind: AC50

Examples with answers:
1) Cc1cc(N2CCN(C)CC2)nc2ccc(NC(=S)N3CCCCC3)cc12 = 10.9 µM (active)
2) CN(C)CCCNc1nc2cc(-c3ccc4c(ccn4C)c3)sc2c(=O)n1C = 4.02 µM (active)
3) CN(C)CCNc1ncnc2c1sc1nc(N3CCCC3)c3c(c12)CC(C)(C)OC3 = 6.55 µM (active)
4) CN1CCN(C2Cc3ccc(Cl)cc3Sc3ccc(F)cc32)CC1 (stereo not drawn) = 14.1 µM (active)

Quick note, AC50 for `Cc1ccc(NCCN(C)C)c2c(=O)c3cc(O)ccc3sc12` landed at 0.32 µM (active)

Quick note, AC50 for `COc1cc2c[n+](C)c3c4ccccc4ccc3c2cc1OC` landed at 0.36 µM (active)

Quick note, AC50 for `CC[N+](CC)(CC)CCCCOc1ccc2c(c1)C(=O)c1cc(OCCCC[N+](CC)(CC)CC)ccc1-2` landed at 0.506 µM (active)

Quick note, AC50 for CN/C(=C\[N+](=O)[O-])NCCSCc1ccc(CN(C)C)o1 [RANITIDINE HYDROCHLORIDE] landed at 11.8 µM (active)

----------
Target: UniProt:P49862
Sequence (P49862 whole entry): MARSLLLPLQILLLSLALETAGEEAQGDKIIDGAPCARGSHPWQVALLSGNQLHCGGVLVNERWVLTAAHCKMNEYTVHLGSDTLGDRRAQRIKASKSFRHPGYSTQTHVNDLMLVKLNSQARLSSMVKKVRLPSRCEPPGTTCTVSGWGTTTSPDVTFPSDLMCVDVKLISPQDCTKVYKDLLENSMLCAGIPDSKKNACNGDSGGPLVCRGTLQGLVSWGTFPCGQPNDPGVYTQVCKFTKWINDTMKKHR
Experiment: Fluorescence Intensity-based biochemical primary high throughput dose response assay to identify activators of kallikrein-7 (K7) zymogen.
The source made the active and inactive calls.
The reply should be one of these categories: active, inactive

Worked set:
1. CC(=O)Nc1ccc(C2Nc3ccccc3C(=O)N2C2CCCCC2)cc1 (centres undefined) = inactive
2. Nc1nccnc1C(=O)OCc1nc2sc3c(c2c(=O)[nH]1)CCCC3 = active
3. Cc1cccn2c(=O)c3cc(C(=O)NC4CCS(=O)(=O)C4)sc3nc12 (centres undefined) = inactive

Could you check what this test reported for `CCOC(=O)c1c(N)n(CCN2CCCCC2)c2nc3ccccc3nc12` ?
active

----------
Biological target: Small ubiquitin-related modifier 1 (Homo sapiens, UniProt P63165)
Sequence (P63165 whole entry): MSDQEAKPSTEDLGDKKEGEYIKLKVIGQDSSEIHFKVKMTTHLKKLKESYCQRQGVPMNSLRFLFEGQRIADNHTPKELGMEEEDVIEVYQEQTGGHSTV
Assay: SUMO1 protein interaction blockers, potency – biochemical, fluorescence polarization, uHTS hits, dose response (AID 624382)
Type: functional
Conditions: read-out: IC50_Mean
Calls of active or inactive are those of the source.
The reply should be one of these categories: class 1 (active), class 0 (inactive)

1) COc1ccc(Br)cc1/C=N/Nc1ccc(S(=O)(=O)Nc2ccccc2C(=O)O)cc1[N+](=O)[O-] = class 1
2) O=c1c(-c2c(O)cc(O)c3c(=O)cc(-c4ccc(O)cc4)oc23)c(-c2ccc(O)cc2)oc2cc(O)cc(O)c12 = class 0
3) Sc1nnc(-c2cc(-c3ccccc3)[nH]n2)n1/N=C/c1cccc(Cl)c1 = class 0
4) NC(=O)c1ccc2c(=O)n3c(-c4cc(Cl)c(N)c(Cl)c4)csc3nc2c1 = class 0

Could you check what this test reported for `C=CCOc1ccc(C=NNc2ccc(S(=O)(=O)Nc3ccccc3C(=O)O)cc2[N+](=O)[O-])cc1OC` ?
class 1

----------
Molecular target: Cytochrome P450 3A4 (Homo sapiens);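 note: CYP3A4 tested as one member of a cytochrome P450 panel screen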
Sequence (P08684 whole entry): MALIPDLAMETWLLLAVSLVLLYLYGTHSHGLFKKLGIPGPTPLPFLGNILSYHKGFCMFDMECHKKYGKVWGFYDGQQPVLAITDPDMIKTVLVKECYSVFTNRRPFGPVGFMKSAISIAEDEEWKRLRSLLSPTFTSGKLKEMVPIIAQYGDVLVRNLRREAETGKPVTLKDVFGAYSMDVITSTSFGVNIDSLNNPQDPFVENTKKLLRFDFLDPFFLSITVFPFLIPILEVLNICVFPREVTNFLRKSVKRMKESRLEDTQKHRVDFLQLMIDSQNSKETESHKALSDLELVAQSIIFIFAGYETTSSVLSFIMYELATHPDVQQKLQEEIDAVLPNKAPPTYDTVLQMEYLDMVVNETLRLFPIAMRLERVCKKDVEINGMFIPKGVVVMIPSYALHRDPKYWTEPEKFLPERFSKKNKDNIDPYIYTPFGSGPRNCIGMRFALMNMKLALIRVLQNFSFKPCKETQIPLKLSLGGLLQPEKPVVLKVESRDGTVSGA
Peptide text beside a SMILES is read from it. * marks the point of attachment. Boc = CC(C)(C)OC(=O)*
Reported AC50 values follow for various compounds

Examples with answers:
1) COc1ccc(NC(=O)N2CC3(CCN(C(=O)c4ccncc4)CC3)C2)cc1 = 15.8 µM (inconclusive)
2) COc1ccc(S(=O)(=O)NCCC(=O)NCc2ccc(F)cc2)cc1 = 28.2 µM (inconclusive)
3) O=c1c(-c2ccc(F)c(F)c2)nc2cncnc2n1-c1ccccc1 = 20 µM (inconclusive)
4) Nc1cc(N)nc(SCC(=O)NNC(=O)c2ccc(Cl)cc2)n1 = 14.1 µM (inconclusive)
5) CC(C)(C)C(=O)Nc1cccc(-c2nc3ccccc3c(=O)o2)c1 = 25.1 µM (inconclusive)
6) O=C(NCc1ccccc1Cl)c1ccc2c(=O)n(CCCN3CCCC3=O)c(=S)[nH]c2c1 = 15.8 µM (inconclusive)
7) CC(=O)OC[C@@H]1O[C@H](CCO/N=C(\C)CCN2CCCc3nc(C)c(C)cc32)C=C[C@@H]1OC(C)=O = 3.98 µM (inconclusive)
8) CC(C)C(NC(=O)OC(C)(C)C)C(=O)N1CCCC1C(=O)NC(Cc1ccccc1)C(N)=O (stereo not drawn) (Boc-Val-Pro-Phe-NH2; configuration not given here) = 15.8 µM (inconclusive)

Now for the compound whose AC50 we want.
Quick note, AC50 for `c1ccc(-c2csc(Nc3nc(N4CCOCC4)nc(N4CCOCC4)n3)n2)cc1` landed at 10 µM (inconclusive)

----------
Reported IC50 values follow for various compounds
Target: 26S proteasome non-ATPase regulatory subunit 14 (Homo sapiens, UniProt O00487)
Sequence (O00487 whole entry): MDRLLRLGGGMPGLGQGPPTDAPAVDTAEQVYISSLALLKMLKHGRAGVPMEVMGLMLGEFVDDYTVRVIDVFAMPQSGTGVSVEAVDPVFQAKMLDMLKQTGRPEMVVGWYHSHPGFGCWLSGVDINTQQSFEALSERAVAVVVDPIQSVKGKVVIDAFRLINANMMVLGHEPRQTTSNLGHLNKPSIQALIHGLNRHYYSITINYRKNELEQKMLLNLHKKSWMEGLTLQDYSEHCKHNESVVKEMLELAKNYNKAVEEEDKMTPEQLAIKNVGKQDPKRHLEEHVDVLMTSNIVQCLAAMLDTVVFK
Assay: inhibition of proteasome subunit RPN11 – biochemical, fluorescence polarization, uHTS hits, confirmation (AID 602368)
Format: functional
Active and inactive are the calls of the source.

Examples with answers:
1) COc1cc(NS(=O)(=O)c2ccc(NC(=S)NC(=O)/C=C/c3ccco3)cc2)ncn1 = 12.9 µM (active)
2) NC(=O)CC(NC(=O)c1ccc(Br)cc1)c1ccc(NC2CCCCCC2)c([N+](=O)[O-])c1 (stereo unspecified) = 31.6 µM (active)
3) Cc1ccc(-n2cccc2/C=C2/C(=N)N3C(=NC2=O)SN=C3S(C)(=O)=O)cc1Cl = 13.4 µM (active)
4) COc1ccc(C=C2SC(=S)N(CCCC(=O)Nc3ccc(C(=O)O)c(O)c3)C2=O)cc1OC = 26.2 µM (active)
5) COc1cc(/C=C2/SC(=S)N(c3c(C)n(C)n(-c4ccccc4)c3=O)C2=O)ccc1O = 24.4 µM (active)

Now for the compound whose IC50 we want.
Quick note, IC50 for `Sc1nnc(-c2cc(-c3ccccc3)[nH]n2)n1/N=C/c1cccc(Cl)c1` landed at 11.4 µM (active)

----------
Target: Large T antigen (Simian virus 40, UniProt P03070);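 note: Confirmatory-stage PubChem screen for compounds that inhibit SV40 T antigen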
Sequence (P03070 whole entry): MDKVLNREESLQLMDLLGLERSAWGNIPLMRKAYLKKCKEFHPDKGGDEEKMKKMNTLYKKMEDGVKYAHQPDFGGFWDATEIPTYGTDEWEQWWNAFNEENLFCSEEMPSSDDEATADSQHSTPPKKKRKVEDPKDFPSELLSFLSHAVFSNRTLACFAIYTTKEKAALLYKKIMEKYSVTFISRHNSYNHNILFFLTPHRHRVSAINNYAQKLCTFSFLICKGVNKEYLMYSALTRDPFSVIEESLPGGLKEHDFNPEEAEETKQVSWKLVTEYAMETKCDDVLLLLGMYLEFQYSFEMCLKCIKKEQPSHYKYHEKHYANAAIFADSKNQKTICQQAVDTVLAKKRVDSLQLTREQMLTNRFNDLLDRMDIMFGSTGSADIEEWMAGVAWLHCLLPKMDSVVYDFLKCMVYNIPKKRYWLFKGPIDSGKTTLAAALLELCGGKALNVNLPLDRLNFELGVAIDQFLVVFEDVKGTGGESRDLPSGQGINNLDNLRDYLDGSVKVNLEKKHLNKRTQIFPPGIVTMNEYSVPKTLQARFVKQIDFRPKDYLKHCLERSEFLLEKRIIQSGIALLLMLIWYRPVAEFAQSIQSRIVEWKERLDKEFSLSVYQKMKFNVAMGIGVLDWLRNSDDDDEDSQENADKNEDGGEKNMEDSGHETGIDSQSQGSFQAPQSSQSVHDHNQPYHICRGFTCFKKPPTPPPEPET
Assay type: functional, Betapolyomavirus macacae
Activity calls are given as the source filed them.
Reported IC50 values follow for various compounds

Examples with answers:
1) N=C1/C(=C\c2ccc(Br)o2)C(=O)N=C2SC(CC(=O)N3CCCCC3)=NN12 = > 100 µM (active)
2) CN(C)c1ccc(N2C(=O)CC(Nc3ccc(N4CCOCC4)cc3)C2=O)cc1 (stereo unspecified) = 12.9 µM (active)
3) COc1ccc(/C=C2/C(=O)NC(=S)N(C3CC3)C2=O)cc1CN1C(=O)c2ccccc2C1=O = 48.5 µM (active)
4) Cc1ccc(OCCC(=O)N2CCN(c3ccc(O)cc3)CC2)cc1 = 11.8 µM (active)
5) O=Nc1ccc(NOC(=O)c2ccccc2Br)cc1 = 30.1 µM (active)
6) CC1=C(C#N)C(=O)N(C2CCS(=O)(=O)C2)C(=O)/C1=C\c1ccco1 (stereo unspecified) = 7.93 µM (active)
7) NC(=O)Cn1c(=O)n(Cc2ccco2)c(=O)c2c3c(sc21)CCCCC3 = 33 µM (active)
8) COCCCNC(=S)N/N=C/c1ccc(O)cc1O = 9.14 µM (active)
9) O=C1NN(c2ccccc2)C(=O)/C1=C/c1ccc(-c2cccc(C(=O)O)c2)o1 = 24.3 µM (active)
10) COc1cccc2c(N/N=C/c3ccc(O)c(O)c3)cc(C)nc12 = 23.8 µM (active)

Now for the compound whose IC50 we want.
Item: `COc1cc(C(=O)Nc2ccc(N(C)C)cc2)cc(OC)c1OC` | System: Large T antigen (Simian virus 40, UniProt P03070) | IC50: 6.34 µM (active)
